The measured values listed here are drawn from the Human Domainome abundance scans (Beltran et al. 2025).

B1: Calcium-binding protein 2, residues 155 to 219; numbered along this chain, Q9NPB3 (parent)
chain: RELRDAFREFDTNGDGRISVGELRAALKALLGERLSQREVDEILQDVDLNGDGLVDFEEFVRMMS

Variants of: B1
PROTOCOL DESCRIPTION: abundance fitness (aPCA) (normalised: wild type 0, dead -1); higher = more abundant; growth selection in yeast, the domain comes from the species named
RUN PARAMETERS: Homo sapiens
Threshold check on abundance fitness: at or above -0.1 gives criterion met, strictly below gives criterion not met.

For orientation, consider the following solved cases.
{"columns": ["VARIANT ID", "LABEL CLASS"],
 "data": [
  ["D48F", "criterion not met"],
  ["R4Y", "criterion not met"],
  ["D5V", "criterion not met"],
  ["L3F", "criterion not met"],
  ["K28S", "criterion met"]
]}

Hi, just wondering whether R17N shows abundance fitness of -0.1 or higher.
criterion not met

Hi, just wondering whether R38N shows abundance fitness of -0.1 or higher.
criterion met

Hi, just wondering whether A26H shows abundance fitness of -0.1 or higher.
criterion not met

Hi, just wondering whether V20S shows abundance fitness of -0.1 or higher.
criterion not met
